Experiment: Cytotoxicity against human PBMC cells assessed as reduction in cell viability after 7 days by MTS assay
Assay type: cell-based
Details: read-out: TD50
QUANTITY NAME: CC50 at 168 h (µM)

{"QUERY SMILES": "Nc1nc(CCOC(=O)c2ccc(COc3ccccc3-c3csc(N)n3)cc2)cs1.O=C(O)C(F)(F)F.O=C(O)C(F)(F)F", "REPORTED RELATION": "=", "RECORDED MEASUREMENT": 16}
{"QUERY SMILES": "Nc1nc(-c2ccc(OCc3cccc(C(=O)NCCNC(=O)c4ccc(COc5ccc(Cl)cc5-c5csc(N)n5)cc4)c3)cc2)cs1.O=C(O)C(F)(F)F.O=C(O)C(F)(F)F", "REPORTED RELATION": ">", "RECORDED MEASUREMENT": 50}
{"QUERY SMILES": "Nc1ccc(NCCNC(=O)c2ccc(COc3ccccc3-c3csc(N)n3)cc2)nc1.O=C(O)C(F)(F)F.O=C(O)C(F)(F)F.O=C(O)C(F)(F)F", "REPORTED RELATION": "=", "RECORDED MEASUREMENT": 45}
{"QUERY SMILES": "Nc1nc(-c2ccc(OCc3cccc(C(=O)NCCCCNC(=O)c4ccc(COc5ccccc5-c5csc(N)n5)cc4)c3)cc2)cs1", "REPORTED RELATION": ">", "RECORDED MEASUREMENT": 100}
{"QUERY SMILES": "Nc1nc(-c2ccc(OCc3cccc(C(=O)NCCNC(=O)c4ccc(COc5ccccc5-c5csc(N)n5)cc4)c3)cc2)cs1.O=C(O)C(F)(F)F.O=C(O)C(F)(F)F", "REPORTED RELATION": "=", "RECORDED MEASUREMENT": 30}
{"QUERY SMILES": "Nc1nc(-c2ccc(OCc3cccc(C(=O)NCCNC(=O)c4ccc(COc5ccc(F)cc5-c5csc(N)n5)cc4)c3)cc2)cs1.O=C(O)C(F)(F)F.O=C(O)C(F)(F)F", "REPORTED RELATION": ">", "RECORDED MEASUREMENT": 50}

----------
Test system: Human immunodeficiency virus 1
Assay: Antiviral activity against HIV1 12231 harboring non-nucleoside reverse transcriptase 103N/179F/181C mutant infected in human TZM-bl cells infected with supernatants from virus-infected human MT2 cells treated with compound for 72 hrs assessed as reduction in viral replication after 48 hrs by bright Glo-luciferase reporter gene assay
Format: functional, organism-based
Conditions: Human immunodeficiency virus 1, 12231
pIC50: −log10 of the molar value.
Listed below: pIC50 values for each entry.
QUANTITY NAME: pIC50

{"QUERY SMILES": "Nc1nc(-c2ccc(OCc3cccc(C(=O)NCCNC(=O)c4ccc(COc5ccc(Cl)cc5-c5csc(N)n5)cc4)c3)cc2)cs1.O=C(O)C(F)(F)F.O=C(O)C(F)(F)F", "ASSAY SYSTEM": "Human immunodeficiency virus 1", "RECORDED MEASUREMENT": 5.22}
{"QUERY SMILES": "Nc1nc(-c2ccc(OCc3cccc(C(=O)NCCNC(=O)c4ccc(COc5ccc(F)cc5-c5csc(N)n5)cc4)c3)cc2)cs1.O=C(O)C(F)(F)F.O=C(O)C(F)(F)F", "ASSAY SYSTEM": "Human immunodeficiency virus 1", "RECORDED MEASUREMENT": 5.40}
{"QUERY SMILES": "Nc1ccc(NCCNC(=O)c2ccc(COc3ccccc3-c3csc(N)n3)cc2)nc1.O=C(O)C(F)(F)F.O=C(O)C(F)(F)F.O=C(O)C(F)(F)F", "ASSAY SYSTEM": "Human immunodeficiency virus 1", "RECORDED MEASUREMENT": 5.30}
{"QUERY SMILES": "Nc1nc(-c2ccc(OCc3cccc(C(=O)NCCNC(=O)c4ccc(COc5ccccc5-c5csc(N)n5)cc4)c3)cc2)cs1.O=C(O)C(F)(F)F.O=C(O)C(F)(F)F", "ASSAY SYSTEM": "Human immunodeficiency virus 1", "RECORDED MEASUREMENT": 6.10}
{"QUERY SMILES": "Nc1nc(CCOC(=O)c2ccc(COc3ccccc3-c3csc(N)n3)cc2)cs1.O=C(O)C(F)(F)F.O=C(O)C(F)(F)F", "ASSAY SYSTEM": "Human immunodeficiency virus 1", "RECORDED MEASUREMENT": 6.15}
